Assay: total protein half-life in vivo (active degradation + dilution); higher = more stable protein
Settings: wild type E. coli NCM3722; growth: P-lim chemostat; doubling time 12 h
observable: total protein half-life in vivo (h)

[
  {
    "residue_codes": "MTKTVSTSKKPRKQHSPEFRSEALKLAERIGVTAAARELSLYESQLYNWRSKQQNQQTSSERELEMSTEIARLKRQLAERDEELAILQKAATYFAKRLK [P0CF66]",
    "numeric_value": 5.25
  },
  {
    "residue_codes": "MAISSRNTLLAALAFIAFQAQAVNVTVAYQTSAEPAKVAQADNTFAKESGATVDWRKFDSGASIVRALASGDVQIGNLGSSPLAVAASQQVPIEVFLLASKLGNSEALVVKKTISKPEDLIGKRIAVPFISTTHYSLLAALKHWGIKPGQVEIVNLQPPAIIAAWQRGDIDGAYVWAPAVNALEKDGKVLTDSEQVGQWGAPTLDVWVVRKDFAEKHPEVVKAFAKSAIDAQQPYIANPDVWLKQPENISKLARLSGVPEGDVPGLVKGNTYLTPQQQTAELTGPVNKAIIDTAQFLKEQGKVPAVANDYSQYVTSRFVQ",
    "numeric_value": 11
  },
  {
    "residue_codes": "MIKVLIVDDEPLARENLRVFLQEQSDIEIVGECSNAVEGIGAVHKLRPDVLFLDIQMPRISGLEMVGMLDPEHRPYIVFLTAFDEYAIKAFEEHAFDYLLKPIDEARLEKTLARLRQERSKQDVSLLPENQQALKFIPCTGHSRIYLLQMKDVAFVSSRMSGVYVTSHEGKEGFTELTLRTLESRTPLLRCHRQYLVNLAHLQEIRLEDNGQAELILRNGLTVPVSRRYLKSLKEAIGL [P0AFT5]",
    "numeric_value": 10.1
  }
]
